- Test system: COLO 205 colon
- Assay Comment: NCI tumour cell line growth inhibition, 48 h
Endpoint: TGI

Consider the following illustrative entries.
[[record]]
compound = "CC(=O)OC1COC(S[As](C)C)C(OC(C)=O)C1OC(C)=O (centres undefined)"
data_value = "4.96 µM"

[[record]]
compound = "O=C(Nc1ccc(Br)cc1)Nc1n[nH]c2ccccc12"
data_value = "> 100 µM"

[[record]]
compound = "O=c1/c(=C/c2ccc(Cl)cc2Cl)sc2nc3ccccc3n12"
data_value = "> 100 µM"

[[record]]
compound = "O=C(Nc1cc(C(F)(F)F)ccc1F)Nc1n[nH]c2ccccc12"
data_value = "> 100 µM"

[[record]]
compound = "Cc1c(C(=O)/C=C/c2ccc(Cl)cc2)[n+](=O)c2ccccc2n1[O-]"
data_value = "27.1 µM"

[[record]]
compound = "C=CC1CC12C(=O)C1OC2(C)C2C(=O)c3c(ccc4c3ccc3ccccc34)C(=O)C12 (centres undefined)"
data_value = "> 100 µM"

[[record]]
compound = "N#Cc1[nH]c(=O)n(-c2ccc(Cl)cc2)c1N"
data_value = "> 10 µM"

[[record]]
compound = "CCOc1ccccc1/C=C1\\NC(=O)N(/C=C2\\C(=O)Oc3ccccc3C2=O)C1=O"
data_value = "> 100 µM"


With those in mind, consider the next compound.
# TGI of COc1ccc(C(O)CNC(=O)c2ccccc2)cc1 (centres undefined) = > 100 µM

====

- Test system: CAKI-1 renal
- Assay Comment: NCI tumour cell line growth inhibition, 48 h
Endpoint: TGI

[[record]]
compound = "COc1cc(N=NN(C)C)c(C(C)c2c3cc(OC)c(OC)cc3cc[n+]2C)cc1OC (configuration not stated)"
tgt = "CAKI-1 renal"
data_value = "> 100 µM"


Could I get TGI for every one of these entries?
1. N=C(c1ccccc1)N(O)C1CCCCC1
2. CCCCC(=O)N/N=C/c1cc(I)cc(I)c1O
3. COc1cc(CSc2nc3ccc(C)cc3c(=O)n2Cc2ccccc2)cc(OC)c1OC
4. COc1ccc2[nH]cc(-c3nc(-c4cn(C)c5ccncc45)cs3)c2c1
5. Cc1cc2[nH]c3c(C#N)c(-c4ccccc4)c(N=Nc4cccc(C(F)(F)F)c4)c(=O)n3c2cc1C
6. CC(=O)O[C@@H]1CO[C@H]2O[C@H]3[C@@H](C(C=O)=C[C@H](O)[C@@H]4C5=C(C(C)C)CC[C@]5(C)CC[C@@]34C)[C@@]2(O)C1=O
7. Cc1cc(N(CCC#N)CCC#N)ccc1/C(N=Nc1cccc([N+](=O)[O-])c1)=N/NC(=O)c1cc(Cl)ccc1O

### Response
1. > 100 µM
2. 10.5 µM
3. > 100 µM
4. 3.35 µM
5. > 100 µM
6. 0.486 µM
7. 56.7 µM

====

- Tested on: DU-145 prostate
- Assay Comment: NCI tumour cell line growth inhibition, 48 h
Endpoint: TGI

Consider the following illustrative entries.
[[record]]
molecule = "COc1ccc2c(c1)CC[C@@H]1[C@@H]2CC[C@@]2(C)[C@H]1CC1(CCCCC1)[C@@H]2O"
data_value = "29.3 µM"

[[record]]
molecule = "CCCN(CCC)c1ccc(CO)c(C)c1"
data_value = "> 100 µM"

[[record]]
molecule = "O=C(N/N=C1\\CCc2ccccc2C1)N/N=C1\\CCc2ccccc2C1"
data_value = "> 10 µM"

[[record]]
molecule = "CC(C)CCC1(O)O[C@H]2C[C@H]3[C@@H]4CCC5CC(=O)C=C[C@]5(C)[C@H]4CC[C@]3(C)[C@H]2[C@@H]1C (some centres undefined)"
data_value = "28.2 µM"

[[record]]
molecule = "C1COC(NC(C2CC2)C2CC2)=N1"
data_value = "> 100 µM"


Could I get TGI for every one of these entries?
1. CCCCCCCCCCCCCCCC(=O)OCC(O)C1OC(=O)C(O)=C1O (centres undefined)
2. CCN(CC)CCOc1ccc(/C=C2\CC3C4CCC5=CC(=O)CC[C@]5(C)C4CC[C@]3(C)C2=O)cc1OC (some centres undefined)
3. O=C(c1cc(Cl)cc(Cl)c1)N(C(=S)OC12CC3CC(CC(C3)C1)C2)c1ccccc1
4. COC(=O)C1=Nc2c(C)nn(-c3ccccc3)c2N=C(c2ccc(C)cc2)C1

### Response
1. > 100 µM
2. 16.4 µM
3. > 100 µM
4. > 10 µM
